# protocol-text: yeast display, Sf9 membrane polyspecificity reagent, FACS + sequencing; frameworks hold sequencing errors
attribute-measured: polyreactivity (PSR sort gate)

Some sequences with recorded polyreactivity (PSR sort gate):
[
  {
    "sequence-input": "QVQLVESGGGLVQAGGSLRLSCADSGFTFCSYTMGWYRQAPGKERELVAAITGGGNTKYADSVKGRFTISRDNAKNTFYLQMISLKPEDSAVYYCARLSRYKSYYTSRFDYWGQGNQVTVSS",
    "attribute-measured": "polyreactivity (PSR sort gate)",
    "reported-measurement": "high polyreactivity"
  },
  {
    "sequence-input": "QVQLVESGGGLVQAGGSLRLSCADSGYTIILYVMGWYRQAPGKERELVAVITLSGGITYYADSVKGRFTISRDNAKNTVYLQMNSLKPEDTAVYYCAVDVYHNRYFTLTSWYHYDSWGQGTQVTVSS",
    "attribute-measured": "polyreactivity (PSR sort gate)",
    "reported-measurement": "low polyreactivity"
  },
  {
    "sequence-input": "QDQLVESGGGLVQAGVSLRLSCAASGSTFAYITMGRYRQAPGKERELVAAISWRGTRTYYADSVKGRFTISRDNAKNNVYLQMNSLKPEDTAVYYCATKDGISYDYWVQGTQVTVSS",
    "attribute-measured": "polyreactivity (PSR sort gate)",
    "reported-measurement": "high polyreactivity"
  },
  {
    "sequence-input": "QVQLVESGGGLVQAGGRLRLSCAASGSIFTVYSMGWYRQAPGKERELVASIRFSSGRTYYADSVKGRFTISRDNAKNTVYLQMNSLKPEDTAVYYCAAETVSWYRYYYWGQGTQVTVSS",
    "attribute-measured": "polyreactivity (PSR sort gate)",
    "reported-measurement": "high polyreactivity"
  },
  {
    "sequence-input": "QVQLVESGGGLVQAGGSLRLSCAASGFTFVSYAMGWSRQAPGKERELVAVISKSGSRTSYAESVKGRFTISRDNAKNTVYLQMNSLKPEDTAVYYCAVYYTRIGPRYDYWGQGTQVTVSS",
    "attribute-measured": "polyreactivity (PSR sort gate)",
    "reported-measurement": "high polyreactivity"
  }
]

Recorded result, QVQLVESGGGLVQAGGSLRLSCAASGSTFTIYAMGWYRQAPGKERELVAGITRVGSTNYADSVKGRFTISRDNAKYTVYLQMNSLKPEDTAVYYCARRDLFQAGYEYWGQGTQVTVSS , polyreactivity (PSR sort gate): low polyreactivity

For reference, reported polyreactivity (PSR sort gate) for QVQLVESGGGLVQSGGSLRLSCAASGLTLGHNAMGLYRQAPGKERELVAAITRGGSTNYSDSVKGRFTISRDNAKNTVYFHMNSLKPEYTAVYSCAADLYLGWYYGFEYDYWGQGTQVTVSS stands at low polyreactivity

The measured polyreactivity (PSR sort gate) associated with QVQLVESGGGLVQAGGSLRLSCAASGFTFVYNAMGWYRQAPGKERELVAAITSGGNTYYADSVKGRFTISRDNAKNTVYLQMNSLKPEDTAVYYCAKRGYVRYYAYDYWGQGTQVTVSS reads high polyreactivity

The sequence listed as QVQLVESGGGIVQAVGSLRLSCAASGFTLERYAMVWYRPAPGKERELVAAITQSGVSTYYADSVKGRFTISRDNAKNTVYLQMNSLKPEDTAVYYCNALRIYHHYEYDYWGQGTQVTVSS has a reported polyreactivity (PSR sort gate) of high polyreactivity

polyreactivity (PSR sort gate) measured on QVQLVESGGGLVQAGGSLRLSSAASGSTFYSYAMRWYRQAPGKERELVAAINWDGVSTYYADSVKGRFSISRDNAMNTVYLQMNSLKPEDTAVYYCAADLFSGYRISGTFYYWGQGTQVTVSS = low polyreactivity

Recorded polyreactivity (PSR sort gate) (sequence QVQLVESGGGLVHAGGSLRLSCAASGSIFGTNAMGWYRQAPGQERELVAAISYSGGSTYYADSVKGRFTISRDPAKNTVYLQMNSLKPDDTAVYYCAKVVRYWWERDYWGKGTQVTVSS ): high polyreactivity

For this sequence ( QVQLVESGGGLVQAGGSLRLSCAPSGLIFAHYDMGWYRHAPGKERELVAGITSGGSTNYADSVKGRFTISRDNAKITVYLQMNSQKPEYTAVYYCNADRAGFLGFYLYDYWGQGTQVTVSS ), measured polyreactivity (PSR sort gate) is low polyreactivity

Just so you know, measured polyreactivity (PSR sort gate) for QVQHVESGGGLVQAGGSLRLSCAASGSTFWYNAMGWYRQAPGKERELVAAISYSGGRTYYADSVKGRFTISRDNAKNTVYLQMNSLKPEDTAVYYCNADSRYGGDYWGQGTQVTVSS came out at low polyreactivity
